Task for the reader: assign each of the following compounds its reported pIC50.
# assayTarget: human TLR7 (Homo sapiens)
# Sequence (Q9NYK1 27-1049): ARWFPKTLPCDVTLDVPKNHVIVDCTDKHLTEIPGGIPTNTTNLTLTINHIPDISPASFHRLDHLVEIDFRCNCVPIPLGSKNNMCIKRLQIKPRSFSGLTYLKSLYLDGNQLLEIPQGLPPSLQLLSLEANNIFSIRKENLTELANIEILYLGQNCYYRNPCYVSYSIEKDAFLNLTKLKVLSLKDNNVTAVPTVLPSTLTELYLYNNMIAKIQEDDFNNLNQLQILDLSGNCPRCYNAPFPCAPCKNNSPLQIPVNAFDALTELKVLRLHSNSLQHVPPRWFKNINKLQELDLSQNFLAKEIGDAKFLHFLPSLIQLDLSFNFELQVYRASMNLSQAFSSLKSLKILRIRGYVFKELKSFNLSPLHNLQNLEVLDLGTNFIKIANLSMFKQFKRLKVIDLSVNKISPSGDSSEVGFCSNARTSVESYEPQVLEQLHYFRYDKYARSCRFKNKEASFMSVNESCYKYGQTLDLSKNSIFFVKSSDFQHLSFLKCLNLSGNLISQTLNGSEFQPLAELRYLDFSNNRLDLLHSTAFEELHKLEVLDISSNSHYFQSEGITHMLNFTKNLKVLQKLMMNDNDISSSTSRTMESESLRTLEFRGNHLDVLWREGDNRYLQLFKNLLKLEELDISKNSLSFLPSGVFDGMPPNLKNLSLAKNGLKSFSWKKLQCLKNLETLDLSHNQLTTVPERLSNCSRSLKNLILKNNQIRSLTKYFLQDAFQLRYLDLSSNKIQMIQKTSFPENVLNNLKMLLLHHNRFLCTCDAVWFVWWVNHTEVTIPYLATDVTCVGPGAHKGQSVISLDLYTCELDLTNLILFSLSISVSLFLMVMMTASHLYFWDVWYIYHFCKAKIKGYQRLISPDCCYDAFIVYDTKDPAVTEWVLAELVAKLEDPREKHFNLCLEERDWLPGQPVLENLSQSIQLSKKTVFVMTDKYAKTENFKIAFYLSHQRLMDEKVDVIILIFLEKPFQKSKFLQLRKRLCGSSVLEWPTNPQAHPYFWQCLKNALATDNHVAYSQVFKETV
# assaySummary: TLR7 inhibition reporter assay (HEK-Blue cells, SEAP reporter, gardiquimod stimulation)
# setupConditions: HEK-Blue cells overexpressing human TLR7, SEAP reporter, gardiquimod 7.5 μM
pIC50 is a log-scale quantity: -log10 of the concentration expressed in molar.

Enquiry: Item Cc1cc(-c2[nH]nc(-c3ccc(C4CCNCC4)nn3)c2C(C)C)cn2ncnc12 with human TLR7 (Homo sapiens) - pIC50?
Return: 7.41

Enquiry: Recorded pIC50 for COc1cc(-c2[nH]nc(-c3nc4c(s3)CN(C(C)C)CC4)c2C(C)C)cn2ncnc12 with human TLR7 (Homo sapiens), please?
Return: 7.63

Enquiry: API: value(readout= pIC50, system= human TLR7 (Homo sapiens), query= Cc1cc(-c2[nH]nc(C(=O)N[C@H]3CC[C@@H](NC(C)C(C)C)CC3)c2C(C)C)cn2ncnc12 (some centres unmarked) )
Return: 8.92

Enquiry: Observed pIC50 on human TLR7 (Homo sapiens) for Cc1cc(-c2[nH]nc(-c3ccc4c(c3)CCNC4=O)c2C(C)C)cn2ncnc12 , please.
Return: 8.64

Enquiry: Checklist item: pIC50 tested on human TLR7 (Homo sapiens), entry CCCN1CCc2nc(-c3n[nH]c(-c4cc(OC)c5ncnn5c4)c3C(C)C)sc2C1 , value?
Return: 6.77

Enquiry: Give recorded pIC50 with human TLR7 (Homo sapiens) for the following compound: Cc1cc(-c2[nH]nc(C(=O)NC3CN(CC4(C)COC4)C3)c2C(C)C)cn2ncnc12
Return: 7.92

Enquiry: What pIC50 appears in the records for this compound with human TLR7 (Homo sapiens)? Cc1cc(-c2[nH]nc(C(=O)N[C@H]3CCCN(C(C)C)C3)c2C(C)C)cn2ncnc12
Return: 8.80

Enquiry: I'm curious: which pIC50 was measured for Cc1cc(-c2[nH]nc(C(=O)NC3CN(Cc4ncn(C)n4)C3)c2C(C)C)cn2ncnc12 tested on human TLR7 (Homo sapiens)?
Return: 8.06
